- System: A549/ATCC NSCLC
- experiment-summary: NCI-60 one-dose screen, 48 h (100 = growth as untreated, 0 = no growth, -100 = all killed)
- test-conditions: 10 µM unless noted
The panel holds about 83,000 compounds, 20% with a hit somewhere; the sample as a whole holds those more often. Calls of active or inactive are those of the source. The calls were made as follows: active = growth percent below 10; inactive = the rest.

| compound | growth |
| --- | --- |
| N#CC1=C(N)Oc2c(ccc3cccnc23)C1c1ccccc1 (stereo not drawn) | 32% (inactive) |
| COc1ccc(CNc2ccc3nc(CCC4CCCCC4)[nH]c3c2)cc1 | 80.2% (inactive) |
| CNC(=O)c1cc(Oc2cccc3nc(NC(=O)Nc4ccc(F)cc4F)ccc23)ccn1 | 8.57% (active) |
